The measurements presented in this section are drawn from PubChem BioAssay (NCI).

tested on: MCF7 breast; assay: NCI-60 one-dose screen, 48 h (100 = growth as untreated, 0 = no growth, -100 = all killed); settings: 10 µM
The panel holds about 83,000 compounds, 20% with a hit somewhere; the sample as a whole holds those more often.

molecule: Cc1nc(N)sc1Sc1nc2ccc(Cl)cc2c(=O)n1-c1ccc(Oc2ccccc2)cc1
value_units: %
growth: 87.4
--
molecule: Nc1nsc(C(=O)c2ccc(O)cc2)n1
value_units: %
growth: 99.3
--
molecule: CCNC1(NC#N)CCCCC1
value_units: %
growth: 104
--
molecule: CCN(Cc1ccccc1)C1CCN(Cc2cc(Br)ccc2O)CC1
value_units: %
growth: 46.5
--
molecule: CC(=O)OCC(COC(C)=O)(COC(C)=O)COC(C)=O
value_units: %
growth: 93.8
--
molecule: O=C1/C(=C/c2ccc(O)cc2)CSc2ccc(Cl)cc21
value_units: %
growth: 20.5
--
molecule: Fc1ccc2[nH]c3c(NCCCN4CCOCC4)ncnc3c2c1
value_units: %
growth: 84.7
--
molecule: COc1ccccc1NC1=C(N2CCCCC2)C(=O)c2ccccc2C1=O
value_units: %
growth: 74.8
--
molecule: O=S(=O)(O)C1(O)CCCCC1
value_units: %
growth: 78
--
molecule: FC(F)(F)c1ccc(-c2ncc(-c3ccc(C(F)(F)F)cc3)c(NCc3cc(C(F)(F)F)cc(C(F)(F)F)c3)n2)cc1
value_units: %
growth: 54.9
--
molecule: COc1ccc(-c2nsc3c2NC(=O)CC3c2cccc(Cl)c2)cc1 (stereo unspecified)
value_units: %
growth: 17
--
molecule: CCCCOCCOCCOCc1cc2c(cc1Br)OCO2
value_units: %
growth: 90.2
--
molecule: O=C(COc1ccc(-c2nc3ccccc3[nH]2)cc1)N=Nc1c(O)[nH]c2ccccc12
value_units: %
growth: 42.5
--
molecule: CC(=O)c1c(O)cc2c3c1OC(C)(C)C1CCC(C)(CC31)O2 (stereo unspecified)
value_units: %
growth: 119
--
molecule: O=S(=O)(NC1c2ccccc2Oc2ccccc21)c1ccccc1
value_units: %
growth: 91.5
--
molecule: Cc1ccc2c(c1)-c1cc(C)nn1-c1ccc(C#N)cc1O2
value_units: %
growth: 42
--
molecule: CCOC(=O)c1ccc(NC(=O)Nc2nncs2)cc1
value_units: %
growth: 21.7
--
molecule: O=C(c1ccccc1)C(Sc1ccccc1)c1ccccc1 (stereo unspecified)
value_units: %
growth: 94
--
molecule: CCN1CCOC1C(C)C (stereo unspecified)
value_units: %
growth: 101
--
molecule: N#Cc1ccc(-n2cnc(NC(=O)[C@H]3CCN(C#N)C3)c2)cc1
value_units: %
growth: 4.82
--
molecule: Nc1ncncc1-c1ccc(F)cc1
value_units: %
growth: 110
--
molecule: CC(=O)Oc1ccc(C2=Cc3ccc(OC(C)=O)cc3OC2C)cc1 (stereo unspecified)
value_units: %
growth: 49.1
--
molecule: O=c1oc2c3ccc4cnccc4c3[nH]c2c2ccccc12
value_units: %
growth: -12.3
--
molecule: O=[N+]([O-])c1ccc(S(=O)(=O)OCCCCOS(=O)(=O)c2ccc([N+](=O)[O-])cc2)cc1
value_units: %
growth: 95.9
--
molecule: CC1(C)CNC(=O)N1
value_units: %
growth: 94.5
--
molecule: Cc1cnc(C=O)c2cccc([N+](=O)[O-])c12
value_units: %
growth: 75.8
--
molecule: COc1ccc(-c2nc(NC(=O)CS(=O)(=O)c3ccc(F)cc3)sc2C)cc1
value_units: %
growth: 57.9
--
molecule: CCCCCCCCCCCCc1ccc(C(=O)/C=C/C(=O)O)cc1
value_units: %
growth: -5.2
--
molecule: Nc1c(CNCc2nnn(Cc3ccccc3)c2N)nnn1Cc1ccccc1
value_units: %
growth: 101
--
molecule: O=C(N/N=c1/ccoc2cccnc12)N1CCN(c2ncccn2)CC1
value_units: %
growth: 11.2
--
molecule: CC(=O)O[C@H]1CC[C@@]2(C)[C@@H](CC[C@@H]3[C@@H]2CC[C@]2(C)C=C(C=O)C[C@@H]32)C1
value_units: %
growth: 7.05
--
molecule: N#CN1CC[C@H](C(=O)Nc2ncc(-c3ccccc3)s2)C1
value_units: %
growth: 3.54
--
molecule: NC(=O)C12C(=O)NC(=O)C1(C(=O)O)C21CCCC1 (stereo unspecified)
value_units: %
growth: 96.3
--
molecule: Cc1cc(C)c2nc(C)c(C)[n+]([O-])c2c1
value_units: %
growth: 95.6
--
molecule: OC(CNC1CCCC1)Cn1c2ccccc2c2ccccc21 (stereo unspecified)
value_units: %
growth: -66.2
--
molecule: Cc1ccccc1C1=N[C@@H](Cc2ccccc2)C(=O)c2c(nc3ccccn23)N1
value_units: %
growth: 84.9
--
molecule: N#C/C(=C\N1C(=O)/C(=C/c2cccc([N+](=O)[O-])c2)SC1=S)c1nc2ccccc2s1
value_units: %
growth: 70.9
--
molecule: CCCCn1c(=O)[nH]c2c(c1=O)C(c1ccc(Cl)cc1)c1c([nH]c(=O)n(CCCC)c1=O)N2
value_units: %
growth: 88.2
--
molecule: O=C(C=P(c1ccccc1)(c1ccccc1)c1ccccc1)c1ccc(Br)cc1
value_units: %
growth: 92.4
--
molecule: O=C(N/N=C/c1ccccc1O)c1ccccc1
value_units: %
growth: 3.31
--
molecule: CCN(CC)CC(O)CNc1ccnc2cc(Cl)c(Cl)cc12 (stereo unspecified)
value_units: %
growth: 79.5
--
molecule: CN(C)CCCN(Cc1ccccc1O)C(=S)Nc1ccc(Cl)cc1
value_units: %
growth: 99
--
molecule: CCOC(=O)c1c(C(F)(F)F)n([O-])c2ccc(OC)cc2[n+]1=O
value_units: %
growth: 31.9
--
molecule: Nc1ccc(Sc2ccc3c4c2cccc4c(=O)n2c4ccccc4nc32)cc1
value_units: %
growth: 23.6
--
molecule: CCCc1c(CC)c(=N)c2ccccc2n1C
value_units: %
growth: 32
--
molecule: COc1cc(-c2cc(/C=C/C(C)=O)[nH]n2)cc(OC)c1OC
value_units: %
growth: 41
